Recorded measurements of inhibition of growth at 50 ppm, one per entry
# Tested on: Chenopodium ficifolium
# experiment: Herbicidal activity against Chenopodium ficifolium assessed as inhibition of stalk growth at 50 ppm after 6 days by flat-utensil method relative to control
# Assay type: functional
# measurement.setup: 144 h, read-out: GI
Quick reminder: number only, in %, skip the unit.

# count of solved cases: 2
[
  {
    "compound": "Cc1cc(C)n2s/c(=N\\C(=O)C(c3ccc(Cl)cc3)C(C)C)nc2n1 (racemic)",
    "inhibition of growth at 50 ppm, %": 40
  },
  {
    "compound": "Cc1cc(Cl)n2s/c(=N\\C(=O)[C@H](c3ccc(Cl)cc3)C(C)C)nc2n1",
    "inhibition of growth at 50 ppm, %": 80
  }
]

Read the next record carefully.
I would be grateful if you could share the reported inhibition of growth at 50 ppm for Cc1cc(C)n2s/c(=N\C(=O)[C@H](c3ccc(Cl)cc3)C(C)C)nc2n1 .
50

All values here come from ChEMBL document CHEMBL3045466.
